experimental_target: muscarinic receptor (Cavia porcellus, UniProt H0W1Z3)
Construct: Smooth muscle strips of the urinary bladder were dissected in a Krebs-Henseleit solution; from tissue; host or cells: guinea pig urinary bladder smooth muscle strips
Sequence (H0W1Z3 1-590): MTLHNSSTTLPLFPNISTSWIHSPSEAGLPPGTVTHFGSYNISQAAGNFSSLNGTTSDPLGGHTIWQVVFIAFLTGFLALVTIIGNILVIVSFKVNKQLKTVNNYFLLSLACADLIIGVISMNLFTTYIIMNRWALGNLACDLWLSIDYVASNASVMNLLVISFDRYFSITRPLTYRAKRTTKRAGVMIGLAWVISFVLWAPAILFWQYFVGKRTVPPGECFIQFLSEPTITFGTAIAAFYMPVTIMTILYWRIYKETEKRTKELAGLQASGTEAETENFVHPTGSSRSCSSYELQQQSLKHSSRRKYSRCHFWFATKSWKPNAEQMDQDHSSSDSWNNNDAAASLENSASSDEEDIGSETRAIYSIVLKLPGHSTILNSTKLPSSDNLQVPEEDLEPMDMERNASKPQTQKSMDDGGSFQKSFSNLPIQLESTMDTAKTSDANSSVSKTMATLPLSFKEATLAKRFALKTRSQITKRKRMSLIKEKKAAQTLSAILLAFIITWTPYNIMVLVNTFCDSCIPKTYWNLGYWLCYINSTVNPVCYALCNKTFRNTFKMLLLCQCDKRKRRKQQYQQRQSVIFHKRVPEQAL
measurement_description: Functional in vitro studies: antagonism of carbachol-induced contraction of urinary bladder smooth muscle strips
Type: cell-based, guinea pig
condition_notes: male guinea pig urinary bladder strips; carbachol agonist; 60 min incubation with antagonist; Krebs-Henseleit pH 7.4, 37° C.; KB from dose ratios (Schild); read-out: KB-value
Structures can show the parent of a compound that is named as a salt.
As shown below, each of these compounds has a reported Kb value.
Write the figure, then the unit, nothing else.

Before answering, review these 3 worked examples.
CC(C)N(CC[C@H](c1ccccc1)c1cc(CCCCCCO)ccc1O)C(C)C [Example 17, hydrochloride] = 3.5 nM
CCNCc1ccc(O)c([C@H](CCN(C(C)C)C(C)C)c2ccccc2)c1 = 139 nM
CC(C)N(CCC(c1ccccc1)c1nccs1)C(C)C (stereo not shown) [Example 38, hydrochloride] = 207 nM

What value of Kb has been reported for the following compound? COc1cccc(C(CCN(C(C)C)C(C)C)c2cccs2)c1 (stereo not shown) [Example 45, hydrochloride]
51 nM

---

experimental_target: muscarinic receptor (Cavia porcellus, UniProt H0W1Z3)
Construct: Smooth muscle strips of the urinary bladder were dissected in a Krebs-Henseleit solution; from tissue; host or cells: guinea pig urinary bladder smooth muscle strips
measurement_description: Functional in vitro studies: antagonism of carbachol-induced contraction of urinary bladder smooth muscle strips
Assay type: cell-based, guinea pig
condition_notes: male guinea pig urinary bladder strips; carbachol agonist; 60 min incubation with antagonist; Krebs-Henseleit pH 7.4, 37° C.; KB from dose ratios (Schild); read-out: KB-value
Counter-ions that a name gives are not always drawn.
As shown below, each of these molecules has a reported Kb value.
Reply with just the number (in µM).

Before answering, review these 2 worked examples.
CC(C)N(CCC(c1cccnc1)c1ccccc1O)C(C)C (stereo not drawn) [Example 5, dihydrochloride] = 0.336
CN(CCC(c1ccccc1)c1ccccc1O)C1CCC1 (stereo not drawn) [Example 31, hydrochloride] = 0.014

What value of Kb has been reported for the following molecule? CC(C)N(CC[C@H](c1ccccc1)c1cc(CNCCOCCO)ccc1O)C(C)C [Example 8]
0.026
